Settings: 20.0 µM
Each record here notes measured relative solubility at 20 uM.
Could you respond with only the numeric value?

Use the examples below as a reference point.
Dear colleague, I am looking for the recorded relative solubility at 20 uM of the following molecule: C=CC(=O)N1CCN(Cc2cccc3ccccc23)CC1
1

# repeat for CS(=O)(=O)N1CCN(C(=O)CCl)CC1c1ccccc1 (configuration not stated)
1

# repeat for O=C(CCl)N1CCN(Cc2ccsc2)CC1
1

# repeat for O=C(Cc1cccc(Cl)c1)Nn1cnc2ccccc21
1

# repeat for Cc1nn(C(C)C)c(C)c1CC(=O)Nc1nncn1C1CC1
1

# repeat for NS(=O)(=O)c1ccc(N2CCC(c3ccsc3)CC2)cc1
0.98

# repeat for C=CC(=O)N(c1ccc(C(C)(C)C)cc1)C(C(=O)NCCCSC)c1cccnc1 (configuration not stated)
1

# repeat for Cc1cc(-c2nc3ccccc3[nH]2)ccc1O
0.99

***
Dear colleague, I am looking for the recorded relative solubility at 20 uM of the following molecule: O=C(NC1CCCCC1NC(=O)c1ccncc1)c1ccccc1 (configuration not stated)
1

# repeat for C=CC(=O)N(c1ccc(C2(C)CC2)cc1)C(C(=O)Nc1ccc(Cl)cc1)c1cccnc1 (configuration not stated)
0.95

# repeat for O=C(Nc1cccnc1)Nc1cncc(Cl)c1
1

# repeat for O=C(Cc1cccnc1Br)Nc1cccc(OCCn2cncn2)c1
1
